- tested-target: recombinant HLA-DR401 (HLA-DRA1*01:01, HLA-DRB1*04:01) (Homo sapiens, UniProt P01903+P01911, A100K/A169T/F76Y/I96L/K127E/L162R/M171V/N62H/P40V/Q125Y/R42H/S133A/S149N/S66Y/V115G/V209L/W38E)
- Construct: poly-histidine (C); made in house; host or cells: High Five (Hi5) insect cells, baculovirus (pAcGP67a)
- assay-explanation: biochemical
- Format: binding
- settings: HLA-DR401; fluorescence polarization competition; Fig3B; read-out: Measured IC50
pIC50: −log10 of the molar value. Ends that are not written are not given here.
quantity: pIC50

What value of pIC50 has been recorded for this entry: "VSSFQDILLRMSKMQ"
< 4.30

* * *

Could you please report measured IC50 for the items listed next?
- tested-target: recombinant HLA-DR401 (HLA-DRA1*01:01, HLA-DRB1*04:01) (Homo sapiens, UniProt P01903+P01911, A100K/A169T/F76Y/I96L/K127E/L162R/M171V/N62H/P40V/Q125Y/R42H/S133A/S149N/S66Y/V115G/V209L/W38E)
- Construct: poly-histidine (C); made in house; host or cells: High Five (Hi5) insect cells, baculovirus (pAcGP67a)
- assay-explanation: biochemical
- Type: binding
- settings: read-out: Measured IC50
Ends that are not written are not given here.
Give your result in µM as a bare value.

# input sequence: "AIGFKGEQGPKGGVG" ; wanted: its IC50
23.3

Report IC50 for "AAFFGWEWGPDGEPG" please.
5.67

Item "AAGFKGEQGPKGEPG" has what recorded IC50?
2.91

Which IC50 is listed for "AAGFKGEQGPKGGPG" ?
12.1

* * *

- tested-target: recombinant HLA-DR401 (HLA-DRA1*01:01, HLA-DRB1*04:01) (Homo sapiens, UniProt P01903+P01911, A100K/A169T/F76Y/I96L/K127E/L162R/M171V/N62H/P40V/Q125Y/R42H/S133A/S149N/S66Y/V115G/V209L/W38E)
- Construct: poly-histidine (C); made in house; host or cells: High Five (Hi5) insect cells, baculovirus (pAcGP67a)
- assay-explanation: biochemical
- Format: binding
- settings: SuppFig6C; fluorescence polarization competition, HLA-DR401; read-out: Measured IC50
Ends that are not written are not given here.
quantity: IC50 (nM)
Could you give me the number in nM? Just the number is fine.

Recorded IC50 for "AGGFKGEQGPKGYNG" , please?
134

# IC50 lookup, item "AAGFKGEQGPKGYPG"
115

Can you share its IC50? I mean this sequence: "AAEFRNEDGPLGEPG"
79.9

* * *

What pIC50 was measured for each of the following?
- tested-target: recombinant HLA-DR402 (HLA-DRA1*01:01, HLA-DRB1*04:02) (Homo sapiens, UniProt P01903+P01911, A100E/A169T/F76Y/K127E/L162R/M171V/N62H/P40V/Q125Y/Q99D/R42H/S133A/S149N/S66Y/V209L/W38E)
- Construct: poly-histidine (C); made in house; host or cells: High Five (Hi5) insect cells, baculovirus (pAcGP67a)
- assay-explanation: biochemical
- Format: binding
Ends that are not written are not given here.
The read-out pIC50 is expressed as -log10 of concentration in moles per litre.

Which value of pIC50 has been reported for "AAQVDWPTLPMWEEG" in the records?
7.20

I have this sequence here, "AAVREKCDHVGWEEG" , and I need its recorded pIC50.
7.12

Which pIC50 is reported for this sequence? "AACRKHGSSIGWEEG"
6.88

Report pIC50 for "AAPRRHANHLGWEEG" please.
6.89

Record request: pIC50 value, item "AQKIVEWDSRKSKYG"
7.21

Any idea what its pIC50 is? The sequence is "AAVTEEKSHLGWEEG"
7.23

So what's the measured pIC50 for this one? "AALWRHPGHVGWEEG"
7.13

Request the reported pIC50 associated with "AAEHVWPSLVGWEEG"
7.59

Please report the recorded pIC50 for "ASKIAFKIVSQEPAG" .
7.56

Param item = "AAVTNWGCEVGWEEG" ; retrieve measured pIC50.
6.87

Requested read-out: pIC50. Entry: "AAVTERPINLGWEEG"
7.29

So what's the measured pIC50 for this one? "AAGRSHRTHEGWEEG"
8.00
